Assay: Dissociation constant (pKa)
Type: physicochemical
Below, each entry is listed alongside its reported pKa.
Please reply with the value in numeric form only.

Completed entries (count: 4):
# cpd-smiles, pKa
data = [
    ("C=C(C)CN(C1=NCCN1)c1c(Br)cccc1Br", 10.7),
    ("Brc1cccc(Br)c1N(CC1CCCCC1)C1=NCCN1", 11.2),
    ("Fc1cccc(C(F)(F)F)c1N(CC1CC1)C1=NCCN1", 10.7),
    ("CC(C)=CCN(C1=NCCN1)c1c(Br)cccc1Br", 10.8),
]

Recorded pKa of CCCCN(C1=NCCN1)c1c(Br)cccc1Br , please.
11

Also check Cc1cccc(Cl)c1N(CC1CC1)C1=NCCN1
11.3

Try this molecule too: Clc1cccc(Cl)c1N(CC1CC1)C1=NCCN1
10.9

One more molecule: Brc1cccc(Br)c1N(CC1CC1)C1=NCCN1
10.9

----------
logD by entry:
Assay: Partition coefficient (logD7.4)
Settings: octanol/water, pH 7.4
Form field (numeric): enter value without unit.

Examples from the recorded data:
# cpd-smiles, outcome-measure, value
data = [
    ("Brc1cccc(Br)c1N(CC1CCC1)C1=NCCN1", "logD", -0.06),
    ("N=C(N)N(CC1CC1)c1c(Br)cccc1Br", "logD", -0.63),
    ("CCN(C1=NCCN1)c1c(Br)cccc1Br", "logD", -1.01),
    ("Brc1cccc(Br)c1N(CC1CCCCC1)C1=NCCN1", "logD", 0.27),
    ("C/C=C/CN(C1=NCCN1)c1c(Br)cccc1Br", "logD", -0.49),
]

Now take the following compound into account.
Dear colleague, I am looking for the recorded logD of the following compound: CC(C)CN(C1=NCCN1)c1c(Br)cccc1Br
-0.64

----------
Assay: Dissociation constant (pKa)
Format: physicochemical
outcome-measure: pKa
Kindly provide the number alone.

Worked cases, pKa given:
# cpd-smiles, outcome-measure, value
records = [
    ("Clc1cccc(Br)c1N(CC1CC1)C1=NCCN1", "pKa", 10.8),
    ("C/C=C/CN(C1=NCCN1)c1c(Br)cccc1Br", "pKa", 11),
]

# lookup: pKa of Brc1cccc(Br)c1N(CC1CCCC1)C1=NCCN1
10.9

----------
Test: Partition coefficient (logD7.4)
Settings: octanol/water, pH 7.4
Friendly reminder: logD below -0.5 is yes, at or above is no.

Example cases with answers are listed next.
# cpd-smiles, assigned-label
measured = [
    ("Cc1cccc(Cl)c1N(CC1CC1)C1=NCCN1", "yes"),
    ("Brc1cccc(Br)c1N(Cc1cccs1)C1=NCCN1", "no"),
    ("Brc1cccc(Br)c1N(C1=NCCN1)C1CCCCC1", "no"),
    ("Fc1cccc(Br)c1N(CC1CC1)C1=NCCN1", "yes"),
    ("Brc1cccc(Br)c1N(CC1CC1)C1=NCCN1", "yes"),
]

# check: logD < -0.5 for Brc1cccc(Br)c1N(C1=NCCN1)C1CCCC1
no

Try this compound too: Brc1ccc(N(CC2CC2)C2=NCCN2)c(Br)c1
no

----------
Test: Partition coefficient (logD7.4)
Conditions: octanol/water, pH 7.4
outcome-measure: logD
Lab note: write the figure by itself, no unit.

# cpd-smiles, logD
measured = [
    ("C=C(C)CN(C1=NCCN1)c1c(Br)cccc1Br", -0.66),
]

// lookup logD for C#CCN(C1=NCCN1)c1c(Br)cccc1Br
-0.18

Another compound to look at: Fc1cccc(C(F)(F)F)c1N(CC1CC1)C1=NCCN1
-0.95

Try this compound too: Clc1cccc(Br)c1N(CC1CC1)C1=NCCN1
-0.79

Please answer likewise for Brc1cccc(N(CC2CC2)C2=NCCN2)c1Br
-0.41

Another compound to look at: CC(C)CCN(C1=NCCN1)c1c(Br)cccc1Br
0.16

# iterate: Brc1cccc(Br)c1N(Cc1ccco1)C1=NCCN1
-0.52

Next: Fc1cccc(F)c1N(CC1CC1)C1=NCCN1
-1.41
